meta.source: ChEMBL document CHEMBL3407416

Molecular target: Phosphatidylinositol 4,5-bisphosphate 3-kinase catalytic subunit alpha isoform (Homo sapiens, UniProt P42336)
Sequence (P42336 whole entry, looked up, canonical isoform): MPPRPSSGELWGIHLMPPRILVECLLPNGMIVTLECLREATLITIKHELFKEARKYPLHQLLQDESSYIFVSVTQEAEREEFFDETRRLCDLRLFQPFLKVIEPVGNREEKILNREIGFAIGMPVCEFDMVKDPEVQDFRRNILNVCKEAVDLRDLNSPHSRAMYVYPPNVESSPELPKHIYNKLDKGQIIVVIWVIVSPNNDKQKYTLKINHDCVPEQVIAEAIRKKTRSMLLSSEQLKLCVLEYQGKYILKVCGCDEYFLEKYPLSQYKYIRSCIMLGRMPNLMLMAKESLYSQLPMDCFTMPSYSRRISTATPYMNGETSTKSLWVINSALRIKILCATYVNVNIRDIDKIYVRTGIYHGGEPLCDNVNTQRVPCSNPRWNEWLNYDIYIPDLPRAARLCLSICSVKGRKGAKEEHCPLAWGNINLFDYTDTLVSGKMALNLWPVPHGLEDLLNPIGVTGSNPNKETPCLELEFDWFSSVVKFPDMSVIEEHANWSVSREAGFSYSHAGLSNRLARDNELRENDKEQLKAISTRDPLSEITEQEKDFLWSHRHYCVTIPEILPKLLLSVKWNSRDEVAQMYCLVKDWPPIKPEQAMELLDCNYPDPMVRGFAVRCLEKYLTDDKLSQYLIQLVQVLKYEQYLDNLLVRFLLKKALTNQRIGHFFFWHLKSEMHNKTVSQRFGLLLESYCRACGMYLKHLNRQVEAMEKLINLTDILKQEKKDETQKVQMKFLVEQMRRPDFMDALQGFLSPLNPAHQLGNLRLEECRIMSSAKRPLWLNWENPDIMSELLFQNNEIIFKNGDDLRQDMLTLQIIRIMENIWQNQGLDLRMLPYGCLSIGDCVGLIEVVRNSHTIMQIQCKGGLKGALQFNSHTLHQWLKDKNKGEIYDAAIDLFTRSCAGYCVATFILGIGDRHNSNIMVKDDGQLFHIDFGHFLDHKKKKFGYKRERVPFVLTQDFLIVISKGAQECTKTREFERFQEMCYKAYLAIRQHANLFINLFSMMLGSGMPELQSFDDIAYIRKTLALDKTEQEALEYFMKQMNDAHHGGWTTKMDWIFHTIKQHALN
Assay: Inhibition of PI3Kalpha mutant human BT474 cells assessed as inhibition of Akt phosphorylation at […] after 2 hrs
Type: cell-based
Details: bt-474
Catalogue of IC50 readings, one per entry.

| compound | IC50 [µM] |
| --- | --- |
| CC(Nc1ccc(F)c(Cl)c1)c1cc(C(=O)N(C)C)cc2c(=O)cc(N3CCOCC3)oc12 (racemic) | 5.5 |
| CC(Nc1cc(F)cc(F)c1)c1cc(C(=O)N2CCCCC2)cc2c(=O)cc(N3CCOCC3)oc12 (racemic) | 3.1 |
| CC(Nc1ccc(F)cc1)c1cc(C(=O)N(C)C)cc2c(=O)cc(N3CCOCC3)oc12 (racemic) | 12.4 |
| CC(Nc1cc(F)cc(F)c1)c1cc(C(=O)N2CCCC2)cc2c(=O)cc(N3CCOCC3)oc12 (racemic) | 0.4 |

---

Assay: Apparent permeability from apical to basolateral side of human Caco2 cells
Type: ADME, cell-based
Settings: Caco-2, read-out: permeability
measurement-label: Papp A→B

| smiles-data | measurement-label | test-value |
| --- | --- | --- |
| C[C@H]1CN(c2cc(=O)c3cc(C(=O)N(C)C)cc([C@@H](C)Nc4cc(F)cc(F)c4)c3o2)CCO1 | Papp A→B | 14 ×10⁻⁶ cm/s |
| CNC(=O)c1cc([C@@H](C)Nc2cc(F)cc(F)c2)c2oc(N3CCOCC3)cc(=O)c2c1 | Papp A→B | 3.5 ×10⁻⁶ cm/s |
| C[C@@H](Nc1cc(F)cc(F)c1)c1cc(C(=O)N2CCC2)cc2c(=O)cc(N3CCOCC3)oc12 | Papp A→B | 9.2 ×10⁻⁶ cm/s |
| CN(C)C(=O)c1cc(CN(C)c2cc(F)cc(F)c2)c2oc(N3CCOCC3)cc(=O)c2c1 | Papp A→B | 36 ×10⁻⁶ cm/s |
| C[C@H](c1cc(C(=O)N(C)C)cc2c(=O)cc(N3CCOCC3)oc12)N(C)c1cc(F)cc(F)c1 | Papp A→B | 42 ×10⁻⁶ cm/s |
| C[C@@H](Nc1ccc(F)c(F)c1)c1cc(C(=O)N(C)C)cc2c(=O)cc(N3CCOCC3)oc12 | Papp A→B | 6.5 ×10⁻⁶ cm/s |
| C[C@@H](Nc1cc(F)cc(Cl)c1)c1cc(C(=O)N(C)C)cc2c(=O)cc(N3CCOCC3)oc12 | Papp A→B | 11 ×10⁻⁶ cm/s |
| C[C@@H](Nc1cccc(Cl)c1F)c1cc(C(=O)N(C)C)cc2c(=O)cc(N3CCOCC3)oc12 | Papp A→B | 21 ×10⁻⁶ cm/s |

---

Catalogue of pIC50 readings, one per entry.
Target: Phosphatidylinositol 4,5-bisphosphate 3-kinase catalytic subunit beta isoform (Homo sapiens, UniProt P42338)
Sequence (P42338 whole entry, canonical isoform): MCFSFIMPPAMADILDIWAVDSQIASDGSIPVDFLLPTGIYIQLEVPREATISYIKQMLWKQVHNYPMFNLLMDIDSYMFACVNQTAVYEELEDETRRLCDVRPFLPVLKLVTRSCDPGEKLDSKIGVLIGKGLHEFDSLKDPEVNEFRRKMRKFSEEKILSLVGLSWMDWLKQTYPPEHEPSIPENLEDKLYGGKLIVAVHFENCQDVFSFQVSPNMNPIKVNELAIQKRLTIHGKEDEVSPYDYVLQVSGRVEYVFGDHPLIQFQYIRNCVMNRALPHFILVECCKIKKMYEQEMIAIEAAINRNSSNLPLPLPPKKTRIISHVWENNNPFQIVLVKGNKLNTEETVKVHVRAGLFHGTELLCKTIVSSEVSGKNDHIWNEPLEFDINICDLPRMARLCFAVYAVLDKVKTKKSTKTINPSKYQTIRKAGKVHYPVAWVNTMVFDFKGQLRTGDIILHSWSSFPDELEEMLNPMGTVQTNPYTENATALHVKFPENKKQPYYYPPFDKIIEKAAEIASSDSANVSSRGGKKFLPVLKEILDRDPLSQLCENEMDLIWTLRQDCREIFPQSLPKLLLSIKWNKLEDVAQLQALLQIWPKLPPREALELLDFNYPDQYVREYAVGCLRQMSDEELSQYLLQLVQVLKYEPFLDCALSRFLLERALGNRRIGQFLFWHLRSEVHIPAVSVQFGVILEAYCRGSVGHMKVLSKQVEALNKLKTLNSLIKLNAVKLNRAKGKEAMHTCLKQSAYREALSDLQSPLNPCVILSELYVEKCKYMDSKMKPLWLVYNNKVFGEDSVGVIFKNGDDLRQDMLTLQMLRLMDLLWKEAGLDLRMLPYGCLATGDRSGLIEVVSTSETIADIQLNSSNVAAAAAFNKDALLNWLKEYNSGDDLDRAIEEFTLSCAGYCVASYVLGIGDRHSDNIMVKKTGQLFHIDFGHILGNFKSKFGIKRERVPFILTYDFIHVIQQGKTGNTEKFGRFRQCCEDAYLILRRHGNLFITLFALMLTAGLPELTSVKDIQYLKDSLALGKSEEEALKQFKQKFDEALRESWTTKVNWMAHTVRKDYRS
Experiment: Inhibition of PI3Kbeta in PTEN-null human MDA-MB-468 cells assessed as inhibition of Akt phosphorylation after 2 hrs
Assay type: cell-based
pIC50: −log10 of the molar value.

| compound | pIC50 |
| --- | --- |
| CC(Nc1ccc(F)c(Cl)c1)c1cc(C(=O)N(C)C)cc2c(=O)cc(N3CCOCC3)oc12 (racemic) | 7.80 |
| C[C@@H](Nc1cccc(Cl)c1F)c1cc(C(=O)N(C)C)cc2c(=O)cc(N3CCOCC3)oc12 | 7.70 |
| CCN(C)C(=O)c1cc(C(C)Nc2cc(F)cc(F)c2)c2oc(N3CCOCC3)cc(=O)c2c1 (racemic) | 8.15 |
| CC(Nc1cc(Cl)cc(Cl)c1)c1cc(C(=O)N(C)C)cc2c(=O)cc(N3CCOCC3)oc12 (racemic) | 7.77 |
| Cc1cc(F)cc(NC(C)c2cc(C(=O)N(C)C)cc3c(=O)cc(N4CCOCC4)oc23)c1 (racemic) | 7.31 |
| CC(Nc1cccc(F)c1F)c1cc(C(=O)N(C)C)cc2c(=O)cc(N3CCOCC3)oc12 (racemic) | 7.62 |
| CC(Nc1cc(F)cc(F)c1)c1cc(C(=O)N2CCCCC2)cc2c(=O)cc(N3CCOCC3)oc12 (racemic) | 7.85 |
| CC(Nc1cc(F)cc(F)c1)c1cc(C(=O)N2CCC(O)CC2)cc2c(=O)cc(N3CCOCC3)oc12 (racemic) | 7.77 |
| CC(Nc1ccc(F)cc1)c1cc(C(=O)N(C)C)cc2c(=O)cc(N3CCOCC3)oc12 (racemic) | 6.89 |
| CC(Nc1cc(F)cc(F)c1)c1cc(C(=O)N2CCCC2)cc2c(=O)cc(N3CCOCC3)oc12 (racemic) | 8.70 |
| C[C@H](c1cc(C(=O)N2CCC(O)CC2)cc2c(=O)cc(N3CCOCC3)oc12)N(C)c1cc(F)cc(F)c1 | 7.92 |
| CCNC(=O)c1cc(C(C)Nc2cc(F)cc(F)c2)c2oc(N3CCOCC3)cc(=O)c2c1 (racemic) | 7.85 |
| CC(Nc1cccc(F)c1)c1cc(C(=O)N(C)C)cc2c(=O)cc(N3CCOCC3)oc12 (racemic) | 7.49 |
| C[C@@H](Oc1cc(F)cc(F)c1)c1cc(C(=O)N(C)C)cc2c(=O)cc(N3CCOCC3)oc12 | 6.88 |
| CC(Nc1cc(F)ccc1F)c1cc(C(=O)N(C)C)cc2c(=O)cc(N3CCOCC3)oc12 (racemic) | 7.22 |
| C[C@@H](Nc1ccc(F)c(F)c1)c1cc(C(=O)N(C)C)cc2c(=O)cc(N3CCOCC3)oc12 | 7.77 |
| CC(Nc1cc(F)cc(F)c1)c1cc(C(=O)N2CCOCC2)cc2c(=O)cc(N3CCOCC3)oc12 (racemic) | 7.48 |
| COc1cc(F)cc(NC(C)c2cc(C(=O)N(C)C)cc3c(=O)cc(N4CCOCC4)oc23)c1 (racemic) | 7.82 |
| CC(Nc1cc(F)cc(F)c1)c1cc(C(=O)N(C)CCO)cc2c(=O)cc(N3CCOCC3)oc12 (racemic) | 7.82 |
| CN(C)C(=O)c1cc(CNc2cc(F)cc(F)c2)c2oc(N3CCOCC3)cc(=O)c2c1 | 7.46 |
| CNC(=O)c1cc([C@@H](C)Nc2cc(F)cc(F)c2)c2oc(N3CCOCC3)cc(=O)c2c1 | 8.52 |
| C[C@@H](Nc1cc(F)cc(F)c1F)c1cc(C(=O)N(C)C)cc2c(=O)cc(N3CCOCC3)oc12 | 8.22 |
| CC(Nc1cccc(Cl)c1)c1cc(C(=O)N(C)C)cc2c(=O)cc(N3CCOCC3)oc12 (racemic) | 8.05 |
| C[C@H](Nc1cc(F)cc(F)c1)c1cc(C(=O)N(C)C)cc2c(=O)cc(N3CCO[C@@H](C)C3)oc12 | 7.92 |
| COCCNC(=O)c1cc(C(C)Nc2cc(F)cc(F)c2)c2oc(N3CCOCC3)cc(=O)c2c1 (racemic) | 7.51 |
| CCN(CC)C(=O)c1cc(C(C)Nc2cc(F)cc(F)c2)c2oc(N3CCOCC3)cc(=O)c2c1 (racemic) | 7.80 |
| CC(c1cc(C(=O)N2CCCC2)cc2c(=O)cc(N3CCOCC3)oc12)N(C)c1cc(F)cc(F)c1 (racemic) | 7.00 |
| C[C@H]1CN(c2cc(=O)c3cc(C(=O)N(C)C)cc([C@@H](C)Nc4cc(F)cc(F)c4)c3o2)CCO1 | 9.40 |

---

Catalogue of pIC50 readings, one per entry.
Molecular target: Phosphatidylinositol 4,5-bisphosphate 3-kinase catalytic subunit alpha isoform (Homo sapiens)
Assay: Inhibition of PI3Kalpha mutant human BT474 cells assessed as inhibition of Akt phosphorylation at […] after 2 hrs
Format: cell-based
Conditions: bt-474
pIC50: −log10 of the molar value.
measurement-label: pIC50

| compound | measurement-label | test-value |
| --- | --- | --- |
| C[C@@H](Nc1ccc(F)c(F)c1)c1cc(C(=O)N(C)C)cc2c(=O)cc(N3CCOCC3)oc12 | pIC50 | 5.60 |
| C[C@@H](Nc1cc(F)cc(F)c1F)c1cc(C(=O)N(C)C)cc2c(=O)cc(N3CCOCC3)oc12 | pIC50 | 6.05 |
| C[C@@H](Oc1cc(F)cc(F)c1)c1cc(C(=O)N(C)C)cc2c(=O)cc(N3CCOCC3)oc12 | pIC50 | 5.13 |
| CC(Nc1cc(Cl)cc(Cl)c1)c1cc(C(=O)N(C)C)cc2c(=O)cc(N3CCOCC3)oc12 (racemic) | pIC50 | 5.72 |
| CC(Nc1cc(F)ccc1F)c1cc(C(=O)N(C)C)cc2c(=O)cc(N3CCOCC3)oc12 (racemic) | pIC50 | 5.15 |
| CC(c1cc(C(=O)N2CCCC2)cc2c(=O)cc(N3CCOCC3)oc12)N(C)c1cc(F)cc(F)c1 (racemic) | pIC50 | 5.23 |
